# Experiment: Solubility (Solubilitymax, pHmax) of crystalline forms
# Assay type: physicochemical
Counter-ions that a name gives are not always drawn.
Measured metric: Solubilitymax (mg/mL)

molecule="Cc1cc(-c2cnn3c(NC[C@H]4C[C@@](C)(O)C4)cc(Oc4cccnc4)nc23)ccc1C(=O)NC1CC1 [Compound I-monohydrate]" measurement_unit=mg/mL result_modifier=< reported_measurement=0.001
molecule="Cc1cc(-c2cnn3c(NC[C@H]4C[C@@](C)(O)C4)cc(Oc4cccnc4)nc23)ccc1C(=O)NC1CC1 [Compound (I)]" measurement_unit=mg/mL result_modifier=< reported_measurement=0.001
molecule="Cc1cc(-c2cnn3c(NC[C@H]4C[C@@](C)(O)C4)cc(Oc4cccnc4)nc23)ccc1C(=O)NC1CC1 [Compound (I) bisphosphate hemihydrate]" measurement_unit=mg/mL result_modifier== reported_measurement=0.10
molecule="Cc1cc(-c2cnn3c(NC[C@H]4C[C@@](C)(O)C4)cc(Oc4cccnc4)nc23)ccc1C(=O)NC1CC1 [Compound (I) hydrobromide]" measurement_unit=mg/mL result_modifier== reported_measurement=0.63
